Molecular target: bCA IV (Bos taurus)
Construct: CA IV was isolated from bovine lung microsomes as described by Maren et al; from tissue; host or cells: bovine lung microsomes
Sequence (Q95323 19-284): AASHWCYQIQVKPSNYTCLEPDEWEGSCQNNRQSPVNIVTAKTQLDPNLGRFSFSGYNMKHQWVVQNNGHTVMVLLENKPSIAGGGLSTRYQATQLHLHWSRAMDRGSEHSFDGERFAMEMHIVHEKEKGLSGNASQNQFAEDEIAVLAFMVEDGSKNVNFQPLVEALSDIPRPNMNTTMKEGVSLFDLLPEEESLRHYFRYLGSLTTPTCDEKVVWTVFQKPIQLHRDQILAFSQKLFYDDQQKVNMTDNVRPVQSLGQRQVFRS
Assay: CA esterase activity assay, isozyme bCA IV
Assay type: biochemical, bovine
Conditions: Table 1; isolated from bovine lung microsomes, esterase assay method; read-out: KI bCA IV
# Ki values compiled below
MEASUREMENT KIND: Ki (nM)

> print(dat)
                                    compound  value.measured
 1                   Nc1ccc(S(N)(=O)=O)cc1Br              66
 2                    Nc1ccc(S(N)(=O)=O)cc1I             125
 3                       Nc1ccccc1S(N)(=O)=O            1310
 4  CCN[C@H]1CN(CCCOC)S(=O)(=O)c2sc(S(N)(=O)=O)cc21 [BRZ, brinzolamide, reference compound]              45
 5  Nc1ccc(S(=O)(=O)Nc2ccc(S(N)(=O)=O)cc2)cc1             129
 6                  NS(=O)(=O)c1cccc2cccnc12             415
 7                  NS(=O)(=O)c1cccc2ccccc12             438
 8  Nc1ccc(S(=O)(=O)NCCc2ccc(S(N)(=O)=O)cc2)cc1              72
 9          Nc1nccc(Nc2ccc(S(N)(=O)=O)cc2)n1             154
10                   NS(=O)(=O)c1ccc(CCO)cc1             450

###

System: human red cells
Settings: human, 60 min, 2 mM, pH 7.4
# [sulfonamide] in red blood cells, HPLC values compiled below
MEASUREMENT KIND: [sulfonamide] in red blood cells, HPLC (µM)

> print(dat)
                                smiles.data  unit.abbreviation  value.measured
1  Cc1cc(C)[n+](-c2ccc(S(=O)(=O)Nc3nnc(S(N)(=O)=O)s3)cc2)c(C)c1                 µM             0.4
2  Cc1cc(C)[n+](-c2ccc(S(=O)(=O)Nc3nnc(S(N)(=O)=O)s3)cc2)c(C)c1C                 µM             0.3
3  Nc1ccc(S(=O)(=O)Nc2nnc(S(N)(=O)=O)s2)cc1                 µM             154
4  CCc1cc(-c2ccccc2)cc(CC)[n+]1-c1ccc(S(=O)(=O)Nc2nnc(S(N)(=O)=O)s2)cc1                 µM             1.1

###

Biological target: hCA IX (Homo sapiens)
Experiment: CA CO2 hydrase activity assay, tumor-associated isozyme hCA IX
Settings: read-out: KI hCA IX; Table 2; catalytic domain of the human, cloned isozyme
MEASUREMENT KIND: log10 of Ki (log10 of the value in nM)

> print(dat)
                                smiles.data  value.measured
1  Cc1cc(C)[n+](Cc2ccc(S(N)(=O)=O)cc2)c(C)c1C            1.54
2  Cc1cc(C)[n+](Cc2ccc(S(N)(=O)=O)cc2)c(C(C)C)c1            1.62
3  Cc1cc(C)[n+](CCc2ccc(S(N)(=O)=O)cc2)c(C)c1.[O-][Cl+3]([O-])([O-])[O-]            1.15
4  Cc1cc(C(C)C)[n+](Cc2ccc(S(N)(=O)=O)cc2)c(C(C)C)c1            1.73
5  Cc1cc(-c2ccccc2)cc(C)[n+]1Cc1ccc(S(N)(=O)=O)cc1            1.41
6  CCc1cc(-c2ccccc2)cc(CC)[n+]1Cc1ccc(S(N)(=O)=O)cc1            1.46
7  CC(C)c1cc(-c2ccccc2)cc(C(C)C)[n+]1Cc1ccc(S(N)(=O)=O)cc1            2.00
8  CCCc1cc(-c2ccccc2)cc(CCC)[n+]1-c1ccc(S(N)(=O)=O)cc1            2.25

###

Target: hCA II (Homo sapiens, UniProt P00918)
Construct: made in house; host or cells: Escherichia coli BL21 (DE3)
Experiment: CA esterase activity assay, isozyme hCA II
Format: biochemical
Details: Table 2; human (cloned) isozymes; read-out: KI hCA II
MEASUREMENT KIND: Ki (µM)

> print(dat)
                                 smiles.data  value.measured
 1  Cc1cc(C)[n+](Cc2ccc(S(N)(=O)=O)cc2)c(C(C)C)c1            0.05
 2  Cc1cc(-c2ccccc2)cc(C)[n+]1CCc1ccc(S(N)(=O)=O)cc1           0.008
 3  CC(C)c1cc(-c2ccccc2)cc(-c2ccccc2)[n+]1Cc1ccc(S(N)(=O)=O)cc1            0.37
 4  CCCc1cc(-c2ccccc2)cc(CCC)[n+]1-c1ccc(S(N)(=O)=O)cc1            0.12
 5  CC(C)(C)c1cc(-c2ccccc2)cc(-c2ccccc2)[n+]1CCc1ccc(S(N)(=O)=O)cc1           0.275
 6  CC(C)c1cc(-c2ccccc2)cc(C(C)C)[n+]1CCc1ccc(S(N)(=O)=O)cc1           0.021
 7  CCc1cc(-c2ccccc2)cc(-c2ccccc2)[n+]1CCc1ccc(S(N)(=O)=O)cc1            0.22
 8  CCCc1cc(-c2ccccc2)cc(-c2ccccc2)[n+]1-c1ccc(S(N)(=O)=O)cc1            0.58
 9  CCCCc1cc(-c2ccccc2)cc(-c2ccccc2)[n+]1Cc1ccc(S(N)(=O)=O)cc1.[O-][Cl+3]([O-])([O-])[O-]           0.595
10  Cc1cc(C)[n+](CCc2ccc(S(N)(=O)=O)cc2)c(C)c1C            0.01
11  CC(C)c1cc(-c2ccccc2)cc(-c2ccccc2)[n+]1CCc1ccc(S(N)(=O)=O)cc1            0.35
12  CC(C)(C)c1cc(-c2ccccc2)cc(-c2ccccc2)[n+]1Cc1ccc(S(N)(=O)=O)cc1           0.321
13  NS(=O)(=O)c1ccc(C[n+]2c(-c3ccccc3)cccc2-c2ccccc2)cc1           0.493
14  CC(C)c1cc(-c2ccccc2)cc(C(C)C)[n+]1Cc1ccc(S(N)(=O)=O)cc1           0.061
15  CC(C)c1cc(-c2ccccc2)cc(-c2ccccc2)[n+]1-c1ccc(S(N)(=O)=O)cc1            0.44
16  CCc1cc(-c2ccccc2)cc(CC)[n+]1-c1ccc(S(N)(=O)=O)cc1            0.06

###

Molecular target: hCA IX (Homo sapiens)
Test: CA CO2 hydrase activity assay, tumor-associated isozyme hCA IX
Details: read-out: KI hCA IX; Table 1; human cloned isozyme, CO2 hydrase assay method
pKi: −log10 of the molar value.
Class label 1: pKi at least 7. Class label 0: pKi below 7.

> print(dat)
                                    molecule  answer.label
 1  NS(=O)(=O)c1ccc(C(=O)O)cc1 [Compound 26]       label 1
 2  Nc1ccc(S(=O)(=O)Nc2ccc(S(N)(=O)=O)cc2)cc1 [Compound 16]       label 1
 3          Nc1ccccc1S(N)(=O)=O [Compound 1]       label 1
 4      Nc1ccc(S(N)(=O)=O)cc1Cl [Compound 8]       label 0
 5    NS(=O)(=O)c1cccc2ccccc12 [Compound 23]       label 1
 6      Cn1nc(S(N)(=O)=O)sc1=N [Compound 14]       label 1
 7      Nc1ccc(S(N)(=O)=O)cc1I [Compound 10]       label 0
 8  Nc1ccc(S(=O)(=O)NCCc2ccc(S(N)(=O)=O)cc2)cc1 [Compound 19]       label 1
 9    NS(=O)(=O)c1cccc2cccnc12 [Compound 22]       label 1
10      NS(=O)(=O)c1ccc(CO)cc1 [Compound 24]       label 1
11  Nc1nccc(Nc2ccc(S(N)(=O)=O)cc2)n1 [Compound 20]       label 1
12       Nc1ccc(S(N)(=O)=O)cc1F [Compound 7]       label 0
13     NS(=O)(=O)c1ccc(CCO)cc1 [Compound 25]       label 1
